molecular target: GABA-A receptor; agonist GABA site (Homo sapiens) (UniProt P14867+P47870+P28472+P48169+P34903+P18505+P47869+P31644+Q16445); experiment: Displacement of [3H]TBOB from GABAA receptor (unknown origin) at 10 uM; format: protein-complex assay
Parameter threshold = 4%. Response is Criterion met when inhibition meets or exceeds it, else Criterion not met.

INSERT INTO measurements (compound, label_class) VALUES
  ('CCC1(CC)CC(CO)OC1=O (stereo not given)', 'Criterion met'),
  ('CCC1(CC)CC(COC(=O)c2ccccc2)OC1=O (stereo not given)', 'Criterion met'),
  ('CCC(=O)NCCC1CC(CC)(CC)C(=O)O1 (stereo not given)', 'Criterion not met'),
  ('CCC1(CC)CC(CCNC(=O)c2ccccc2)OC1=O (stereo not given)', 'Criterion not met'),
  ('CCC1(CC)CC(CCOC(=O)c2ccccc2)OC1=O (stereo not given)', 'Criterion not met');

Entry source: ChEMBL document CHEMBL3046958
